biological target: T1, recombinant human CD3epsilon/delta Fc(K-H) heterodimer (human); test: ELISA, immobilised antigen, His6-tagged Fab, anti-His6 antibody HRP conjugate, ABTS, OD405
T1 construct: also called human CD3epsilon/delta knob and hole Fc heterodimer; copies: 1 + 1
T1 sequence (chain, as listed by the source mutant limits assumed, chain 1 of 2): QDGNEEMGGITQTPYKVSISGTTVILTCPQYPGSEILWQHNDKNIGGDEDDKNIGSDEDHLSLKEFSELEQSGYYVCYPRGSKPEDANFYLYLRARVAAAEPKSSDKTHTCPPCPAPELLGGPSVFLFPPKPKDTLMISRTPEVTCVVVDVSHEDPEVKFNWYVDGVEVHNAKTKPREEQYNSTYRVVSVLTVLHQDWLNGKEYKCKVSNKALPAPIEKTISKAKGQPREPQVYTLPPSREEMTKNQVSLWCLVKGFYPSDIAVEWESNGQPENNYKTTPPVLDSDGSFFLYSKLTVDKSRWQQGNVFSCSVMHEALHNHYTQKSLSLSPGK
T1 sequence (chain, as listed by the source mutant limits assumed, chain 2 of 2): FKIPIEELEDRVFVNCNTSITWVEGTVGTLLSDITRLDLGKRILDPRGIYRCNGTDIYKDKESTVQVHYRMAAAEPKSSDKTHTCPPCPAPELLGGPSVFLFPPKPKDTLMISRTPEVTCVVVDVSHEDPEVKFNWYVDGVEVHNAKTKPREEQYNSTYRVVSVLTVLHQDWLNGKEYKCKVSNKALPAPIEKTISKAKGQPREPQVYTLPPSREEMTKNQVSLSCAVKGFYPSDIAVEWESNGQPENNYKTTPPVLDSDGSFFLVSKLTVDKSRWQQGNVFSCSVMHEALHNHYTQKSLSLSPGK
property-name: binding result

Per the record, hu-1F3.10 Fab (Fab, V domains shown, His6 tag at the C-terminus of the Fd) VH: EVQLVESGGGLVQPGGSLRLSCAASGFTFNTYAMNWVRQAPGKGLEWVARIRSKYNNYATYYADSVKDRFTISRDDSKNTLYLQMNSLRAEDTAVYYCVRHGNFGNSYVSWFAYWGQGTMVTVSS VL: QAVVTQEPSLTVSPGGTVTLTCRSSTGAVTTSNYANWFQQKPGQAPRGLIGGTNKRAPGTPARFSGSLLGGKAALTLSGVQPEDEAEYYCALWYSNLWVFGGGTKLTVLG has binding result of binds
